# target-or-system: T1, recombinant full-length PDZK1 (mouse, UniProt Q9JIL4 1-519)
# T1 construct: PDZK1, full length, with PDZ1-PDZ4; source: recombinant, purified
# T1 sequence (looked up): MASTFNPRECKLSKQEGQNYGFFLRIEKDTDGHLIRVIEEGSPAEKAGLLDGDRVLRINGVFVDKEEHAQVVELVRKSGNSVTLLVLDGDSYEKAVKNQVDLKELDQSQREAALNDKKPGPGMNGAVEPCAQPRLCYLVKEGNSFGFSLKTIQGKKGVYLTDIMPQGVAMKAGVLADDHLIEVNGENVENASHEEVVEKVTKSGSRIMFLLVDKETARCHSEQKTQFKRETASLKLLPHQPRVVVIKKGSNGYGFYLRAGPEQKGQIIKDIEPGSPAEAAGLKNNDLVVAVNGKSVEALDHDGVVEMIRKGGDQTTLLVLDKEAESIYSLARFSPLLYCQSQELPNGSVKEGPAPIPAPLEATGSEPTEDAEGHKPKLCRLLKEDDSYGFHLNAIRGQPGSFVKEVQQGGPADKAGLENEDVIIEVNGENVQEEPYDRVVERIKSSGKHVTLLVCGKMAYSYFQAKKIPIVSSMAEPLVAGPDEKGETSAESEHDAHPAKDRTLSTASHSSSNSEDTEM
# assay-info: ITC; 1.0 mM peptide injected in 10 µl aliquots into 0.03 mM PDZ1 or full length PDZK1 in the cell; 150 mM NaCl, 25 mM Tris pH 8.0, 0.5 mM TCEP, 20°C; VP-ITC
# conditions: both partners purified
assay-endpoint: Kd (µM)
Reply numerically in µM, unit not repeated.

[ask] Consider the binder shown here: KKIAACSLC (prostacyclin receptor (IP), mouse, seven carboxy-terminal residues 411-417; also called target peptide; C-terminal nonapeptide from IP; source: synthetic peptide, HPLC purified (Tufts University Core Facility)) What is its recorded Kd?
[reply] 60.2
